Target: AhR (Homo sapiens, UniProt P35869)
Construct: PBMCs were isolated from human peripheral blood using Lymphoprep; endogenous in cells
Sequence (P35869 11-848): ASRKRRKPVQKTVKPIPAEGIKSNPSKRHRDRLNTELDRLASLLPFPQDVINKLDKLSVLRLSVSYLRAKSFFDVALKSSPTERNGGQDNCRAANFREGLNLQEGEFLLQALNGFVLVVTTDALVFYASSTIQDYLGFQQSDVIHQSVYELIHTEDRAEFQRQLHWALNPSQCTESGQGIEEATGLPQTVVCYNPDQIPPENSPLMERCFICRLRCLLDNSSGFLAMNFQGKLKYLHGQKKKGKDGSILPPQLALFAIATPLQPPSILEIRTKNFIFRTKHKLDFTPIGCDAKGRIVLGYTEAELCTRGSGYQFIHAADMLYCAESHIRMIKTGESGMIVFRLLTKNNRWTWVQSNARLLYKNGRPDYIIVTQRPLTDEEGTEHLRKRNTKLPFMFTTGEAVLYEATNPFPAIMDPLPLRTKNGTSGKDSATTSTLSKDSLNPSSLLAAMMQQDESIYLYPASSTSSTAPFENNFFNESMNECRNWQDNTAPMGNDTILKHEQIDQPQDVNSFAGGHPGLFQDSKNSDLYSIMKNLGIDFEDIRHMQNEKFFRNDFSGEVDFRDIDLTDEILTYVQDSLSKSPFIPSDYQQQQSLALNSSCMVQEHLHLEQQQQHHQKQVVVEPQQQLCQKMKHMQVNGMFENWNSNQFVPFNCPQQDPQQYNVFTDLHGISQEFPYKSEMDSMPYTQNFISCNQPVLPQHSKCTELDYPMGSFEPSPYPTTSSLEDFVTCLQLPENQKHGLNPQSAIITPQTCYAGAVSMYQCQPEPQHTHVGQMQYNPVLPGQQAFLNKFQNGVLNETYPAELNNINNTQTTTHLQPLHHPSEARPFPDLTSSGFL
Assay: AhR antagonism in human PBMCs - inhibition of interleukin-22 (IL-22) release
Assay type: cell-based
Conditions: human PBMCs activated with CD3/CD28 agonist; IL-22 release after 72 hrs, against endogenously produced AhR agonists; arithmetic mean of two or more tests; read-out: PBMC Assay (pIC50) (converted)
Structures can show the parent of a compound that is named as a salt.
Let's look at some compounds and their measured IC50.
Endpoint: IC50

Compound | Target system | Readout value
CCN1CCc2nc(-c3cncc(F)c3)nc(NCCc3c[nH]c4cc(OC)ccc34)c2CC1 [Example 15] | AhR (Homo sapiens, UniProt P35869) | 631 nM
Fc1cncc(-c2nc3c(c(NCCc4c(C(F)(F)F)[nH]c5ccccc45)n2)CCNC3)c1 [Example 18] | AhR (Homo sapiens, UniProt P35869) | 316 nM
FC(F)(F)c1cncc(-c2nc3c(c(NCCc4c[nH]c5ccccc45)n2)CCNC3)c1 [Example 10] | AhR (Homo sapiens, UniProt P35869) | 794 nM
COc1ccc2c(CCNc3nc(-c4cncc(F)c4)nc4c3CCNCC4)c[nH]c2c1 [Example 16] | AhR (Homo sapiens, UniProt P35869) | 200 nM
COc1ccc2c(CCNc3nc(-c4cncc(F)c4)nc4c3CCNC4)c[nH]c2c1 [Example 1] | AhR (Homo sapiens, UniProt P35869) | 126 nM
COc1cncc(-c2nc3c(c(NCCc4c[nH]c5ccccc45)n2)CCNC3)c1 [Example 9] | AhR (Homo sapiens, UniProt P35869) | 794 nM
COc1ccc2c(CCOc3nc(-c4cncc(F)c4)nc4c3CCNC4)c[nH]c2c1 [Example 17, Hydrochloride] | AhR (Homo sapiens, UniProt P35869) | 25.1 nM
COc1ccc2[nH]c(C)c(CCNc3nc(-c4cncc(F)c4)nc4c3CCNC4)c2c1 [Example 14] | AhR (Homo sapiens, UniProt P35869) | 631 nM
COc1ccc2c(CCNc3nc(-c4cncc(F)c4)nc4c3CNC4)c[nH]c2c1 [Example 5] | AhR (Homo sapiens, UniProt P35869) | 398 nM

* * *

Let's look at some compounds and their measured IC50.
Molecular target: AhR (Homo sapiens)
Construct: PBMCs were isolated from human peripheral blood using Lymphoprep; endogenous in cells
Assay: AhR antagonism in U937 cells (Promega P450-Glo assay)
Type: cell-based
Settings: inhibition of 4.5 nM VAF347 agonist response, CYP1A1 activity (Luciferin-CEE) after 24 hrs, arithmetic mean of two or more tests, read-out: U937 Assay (pIC50) (converted)

Smiles record | IC50 / nM
COc1cncc(-c2nc3c(c(NCCc4c[nH]c5ccccc45)n2)CCNC3)c1 | 20
COc1ccc2c(CCNc3nc(-c4cncc(F)c4)nc4c3CNC4)c[nH]c2c1 | 200
FC(F)(F)c1cncc(-c2nc3c(c(NCCc4c[nH]c5ccccc45)n2)CCNC3)c1 | 25.1
COc1ccc2[nH]c(C)c(CCNc3nc(-c4cncc(F)c4)nc4c3CCNC4)c2c1 | 100

* * *

Biological target: AhR (Homo sapiens, UniProt P35869)
Construct: PBMCs were isolated from human peripheral blood using Lymphoprep; endogenous in cells
Assay: AhR antagonism in U937 cells (Promega P450-Glo assay)
Type: cell-based
Conditions: inhibition of 4.5 nM VAF347 agonist response, CYP1A1 activity (Luciferin-CEE) after 24 hrs, arithmetic mean of two or more tests, read-out: U937 Assay (pIC50) (converted)
Structures can show the parent of a compound that is named as a salt.

Compound | IC50 [nM]
COc1ccc2c(CCNc3nc(-c4cncc(F)c4)nc4c3CCNCC4)c[nH]c2c1 | 316
COc1ccc2c(CCOc3nc(-c4cncc(F)c4)nc4c3CCNC4)c[nH]c2c1 [Example 17, Hydrochloride] | 50.1
COc1ccc2c(CCNc3nc(-c4cncc(F)c4)nc4c3CCNC4)c[nH]c2c1 | 126
CCN1CCc2nc(-c3cncc(F)c3)nc(NCCc3c[nH]c4cc(OC)ccc34)c2CC1 | 158
Fc1cncc(-c2nc3c(c(NCCc4c(C(F)(F)F)[nH]c5ccccc45)n2)CCNC3)c1 | 20
